Origin of measurements: ChEMBL document CHEMBL1201862

# Experiment description: NIH3T3 cell viability loss – ATP luminescence, mouse fibroblasts, counter-screen, dose response (AID 2010);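 also: cells exposed to compound for about 90 hours before reading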
# Assay type: functional, cell-based
Activity calls are given as the source filed them.
Measurement name: EC50

Lookup: Bench note: what EC50 did "O=[N+]([O-])c1ccc(S(=O)(=O)NCCS(=O)(=O)N2CCN(c3ccccc3)CC2)cc1" show?
Found: > 60 µM (not active)

Lookup: Consider next the compound "c1ccc(C(c2ccccc2)c2noc(CN3CCC(c4ccncc4)CC3)n2)cc1" in the same way.
Found: > 30 µM (not active)

Lookup: Consider next the compound "Cc1c(C(=O)NCc2ccc3c(c2)OCO3)oc2ccc(S(=O)(=O)N3CCC(C)CC3)cc12" in the same way.
Found: 50.9 µM (active)

Lookup: Consider next the compound "COc1ccc(S(=O)(=O)N2CCOC23CCN(S(=O)(=O)c2ccc([N+](=O)[O-])cc2)CC3)cc1" in the same way.
Found: > 30 µM (not active)

Lookup: Consider next the compound "Cc1cc(NC(=O)c2cccs2)n(-c2nc3ccccc3[nH]2)n1" in the same way.
Found: 14.2 µM (active)

Lookup: Consider next the compound "Clc1cccc(Nc2nc(-c3ccncc3)cs2)c1" in the same way.
Found: 5.87 µM (active)

Lookup: Consider next the compound "CN(CC(=O)Nc1cccc(F)c1)C(=O)c1ccccc1OCC(=O)Nc1cccc(C(F)(F)F)c1" in the same way.
Found: > 60 µM (not active)

Lookup: Consider next the compound "O=C(Nc1nc2ccc([N+](=O)[O-])cc2s1)c1ccc(S(=O)(=O)N2CCCc3ccccc32)cc1" in the same way.
Found: > 30 µM (not active)

Lookup: Consider next the compound Cc1sc(NC(=O)c2ccco2)c(C(c2ccccc2)N2CCC(C)CC2)c1C (stereo unspecified) in the same way.
Found: > 60 µM (not active)

Lookup: Consider next the compound "CCOc1cc(CNc2cccc3ccccc23)cc(Br)c1OCC(=O)NC(C)(C)C" in the same way.
Found: > 30 µM (not active)

Lookup: Consider next the compound Cc1ccc2cc(C(c3nnnn3C3CCCC3)N(Cc3ccco3)Cc3cccs3)c(O)nc2c1 (stereo unspecified) in the same way.
Found: > 60 µM (not active)

----------
# Experiment description: NIH-3T3 fibroblast cytotoxicity, dose response, cytotoxicity control, cell-based, fluorescence, Alamar Blue, secondary assay (AID 2327);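 also: NIH-3T3 mouse fibroblasts cultured with fluconazole at 8 µg/mL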
# Format: functional
Active and inactive are the calls of the source.
Measurement name: EC50

Lookup: Bench note: what EC50 did COc1ccc(C2N=C(Nc3ccc(C)cc3)Nc3nc(C)cc(=O)n32)cc1 (centres undefined) show?
Found: > 160 µM (inactive)

Lookup: Consider next the molecule "Oc1c(Br)cc(Br)cc1Oc1ccc(Br)cc1Br" in the same way.
Found: > 150 µM (inactive)

Lookup: Consider next the molecule "O=C(NNc1ccc(O)cc1)c1ccc(Br)cc1" in the same way.
Found: 28.9 µM (active)

Lookup: Consider next the molecule "C/C(=N\OCc1ccc(C#N)cc1)c1cc2ccccc2o1" in the same way.
Found: > 160 µM (inconclusive)

----------
# Test system: Streptococcus
# Experiment description: GAS UMAA2166 growth inhibition – luminescence, BacTiterGlo, counter-screen for streptokinase expression inhibitor project, dose response (AID 1915);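 also: potency for reduction of bacterial viability or growth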
# Format: functional, organism-based
The source made the active and inactive calls.
Measurement name: EC50

Lookup: Bench note: what EC50 did "O=C(O)CSCC(=O)N(Cc1ccccc1)c1nc(-c2ccccc2)c(-c2ccccc2)s1" show?
Found: 8.03 µM (active)

Lookup: Consider next the molecule "COc1ccc(NC(=O)c2cnn3c(O)cc(C4CCN(C(=O)OC(C)(C)C)CC4)nc23)cc1Cl" in the same way.
Found: 17.8 µM (active)

Lookup: Consider next the molecule "Cc1c(C)n(Cc2ccc(F)cc2)c2ccc(C(=O)N3CCN(c4ccccn4)CC3)cc12" in the same way.
Found: 28.4 µM (active)

Lookup: Consider next the molecule CC1(C)Cc2c(cnn2-c2ccccc2)C(NC(=O)CCCN2CCCC2=O)C1 (configuration not stated) in the same way.
Found: > 150 µM (not active)

Lookup: Consider next the molecule "Cc1ccc(Cl)cc1NC1=C/C(=N\S(=O)(=O)c2cccs2)c2ccccc2C1=O" in the same way.
Found: 2.98 µM (active)

Lookup: Consider next the molecule "Cc1ccc(NC(=O)c2cccc(OCc3c(C)noc3C)c2)cc1S(=O)(=O)Nc1ccccc1Cl" in the same way.
Found: 57.1 µM (active)

Lookup: Consider next the molecule "O=C(CNC(=O)c1ccc2c(c1)OCO2)N/N=C/c1cc(Br)ccc1O" in the same way.
Found: 25.2 µM (inconclusive)

----------
# Assay system: Corticotropin-releasing factor receptor 2/Corticotropin-releasing factor-binding protein (Homo sapiens, UniProt P24387+Q13324)
# Sequence (Q13324 whole entry): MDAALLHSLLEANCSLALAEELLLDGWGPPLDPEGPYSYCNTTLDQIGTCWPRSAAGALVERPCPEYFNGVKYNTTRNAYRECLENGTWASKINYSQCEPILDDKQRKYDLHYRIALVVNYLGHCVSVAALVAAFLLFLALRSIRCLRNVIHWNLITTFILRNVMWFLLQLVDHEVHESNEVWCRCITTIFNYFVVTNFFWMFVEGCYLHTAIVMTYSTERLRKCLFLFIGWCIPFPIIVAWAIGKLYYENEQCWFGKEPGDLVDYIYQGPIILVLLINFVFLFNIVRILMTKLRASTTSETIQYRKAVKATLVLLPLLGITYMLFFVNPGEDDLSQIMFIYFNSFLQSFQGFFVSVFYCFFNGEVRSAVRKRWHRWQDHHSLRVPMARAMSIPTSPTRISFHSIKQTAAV
# Sequence (P24387 whole entry): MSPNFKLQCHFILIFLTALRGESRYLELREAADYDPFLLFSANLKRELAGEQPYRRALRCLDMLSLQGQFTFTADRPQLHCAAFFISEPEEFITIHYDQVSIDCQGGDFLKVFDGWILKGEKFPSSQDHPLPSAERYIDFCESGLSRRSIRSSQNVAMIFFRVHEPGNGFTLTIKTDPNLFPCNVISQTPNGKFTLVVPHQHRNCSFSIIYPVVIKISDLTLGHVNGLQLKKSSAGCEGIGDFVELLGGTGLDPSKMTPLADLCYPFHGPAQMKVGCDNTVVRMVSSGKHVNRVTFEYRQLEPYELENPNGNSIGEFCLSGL
# Experiment description: Dose Response confirmation of uHTS hits for small molecule antagonists of the CRF-binding protein and CRF-R2 receptor complex.
# Format: functional
# Assay setup: read-out: IC50_Mean
The source made the active and inactive calls.
The reply should name one outcome from 1 (yes) (active), 0 (no) (inactive)

Lookup: Given "COC(=O)C1=C/C=C\CN(C(c2ccccc2)c2ccccc2)/C=C\1C(=O)OC" , state the outcome it received in this test.
Found: 1 (yes)

Lookup: Consider next the compound "COc1ccc(SCC(=O)Nc2ccccc2Cl)cc1" in the same way.
Found: 0 (no)

Lookup: Consider next the compound CC(C)CC(C(=O)Nn1cnnc1)N1C(=O)c2ccccc2C1=O (centres undefined) in the same way.
Found: 0 (no)

Lookup: Consider next the compound COc1ccccc1CN1CCCC(C(=O)N(C)Cc2ccccc2)C1 (centres undefined) in the same way.
Found: 0 (no)

Lookup: Consider next the compound "COc1ccc(N2CCN(C(=O)c3cc(=O)c4cc(C)c(C)cc4o3)CC2)cc1" in the same way.
Found: 0 (no)

Lookup: Consider next the compound "Cc1ccc(-c2nnc(SCC(=O)N3CCN(c4ccccc4)CC3)o2)cc1" in the same way.
Found: 0 (no)

Lookup: Consider next the compound COC(=O)C1=C(N)c2c(F)cccc2C1(C#N)c1ccccc1 (centres undefined) in the same way.
Found: 0 (no)

Lookup: Consider next the compound "C[C@@H]1CCCCO[C@@H](CN(C)CC2CC2)[C@@H](C)CN([C@H](C)CO)C(=O)c2cc(N(C)C)ccc2O1" in the same way.
Found: 0 (no)

Lookup: Consider next the compound "Cc1ccc(S(=O)(=O)N2[C@@H](c3ccc(Br)cc3)C(C(=O)O)=CC[C@H]2c2cccc(C)c2)cc1" in the same way.
Found: 0 (no)

----------
# Assay system: Mannose-6-phosphate isomerase (Homo sapiens, UniProt P34949)
# Sequence (P34949 whole entry): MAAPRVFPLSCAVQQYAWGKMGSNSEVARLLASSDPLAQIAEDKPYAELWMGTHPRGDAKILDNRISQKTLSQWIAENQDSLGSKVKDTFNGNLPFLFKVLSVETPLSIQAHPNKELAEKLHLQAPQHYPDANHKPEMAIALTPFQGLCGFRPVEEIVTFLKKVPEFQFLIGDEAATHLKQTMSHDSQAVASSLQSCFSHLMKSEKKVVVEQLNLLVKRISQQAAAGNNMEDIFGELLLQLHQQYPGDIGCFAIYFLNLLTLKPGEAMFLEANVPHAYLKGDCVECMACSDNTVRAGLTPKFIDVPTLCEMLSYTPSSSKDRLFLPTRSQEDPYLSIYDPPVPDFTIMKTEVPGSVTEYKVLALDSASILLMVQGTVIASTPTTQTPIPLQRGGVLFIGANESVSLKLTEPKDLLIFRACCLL
# Experiment description: phosphomannose isomerase inhibition – biochemical, fluorescence intensity, confirmation (AID 1535)
Activity calls are given as the source filed them.
The reply should name one outcome from active, inactive

Lookup: Given "Clc1ncccc1/N=c1\ssnc1Cl" , state the outcome it received in this test.
Found: active

Lookup: Consider next the compound Cc1cc2n(n1)SC(Nc1cc(Cl)ccc1Cl)N2 (centres undefined) in the same way.
Found: inactive

Lookup: Consider next the compound "O=c1c2ccccc2sn1-c1ccc(F)cc1" in the same way.
Found: active

Lookup: Consider next the compound "O=c1c2ccccc2sn1-c1ncc([N+](=O)[O-])s1" in the same way.
Found: active
